The reported numbers originate from patent US20240182536A1.

Molecular target: T1, interleukin 18 binding protein (IL-18BP) (UniProt O95998 31-194)
T1 sequence (looked up): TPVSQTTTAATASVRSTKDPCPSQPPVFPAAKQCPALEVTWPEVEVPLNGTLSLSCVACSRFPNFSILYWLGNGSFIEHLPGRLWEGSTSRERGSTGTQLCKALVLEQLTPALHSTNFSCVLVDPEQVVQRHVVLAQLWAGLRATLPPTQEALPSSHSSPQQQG
Experiment: cell-based or functional assay
Reported Ratio (-BP/+BP), DF-10000 values for the following binders.

A selection of reference data follows.
Any idea what Ratio (-BP/+BP), DF-10000 was measured for IL-18 variant T34N, S36Y, D37E, D40Q, N41Q, K53D, S55D (ligand) YFGKLESKLSVIRNLNDQVLFIDQGNRPLFEDMNDYEMRQQAPRTIFIISMYDDDQPRGMAVTISVKSEKISTLSSENKIISFKEMNPPDNIKDTKSDIIFFQRSVPGHDNKMQFESSSYEGYFLASEKERDLFKLILKKEDELGDRSIMFTVQNED ?
1.11

Any idea what Ratio (-BP/+BP), DF-10000 was measured for IL-18 variant K53Y, S55V (ligand) YFGKLESKLSVIRNLNDQVLFIDQGNRPLFEDMTDSDMRDNAPRTIFIISMYYDVQPRGMAVTISVKSEKISTLSSENKIISFKEMNPPDNIKDTKSDIIFFQRSVPGHDNKMQFESSSYEGYFLASEKERDLFKLILKKEDELGDRSIMFTVQNED ?
1.03

As a next step, examine the binder that follows.
Any idea what Ratio (-BP/+BP), DF-10000 was measured for IL-18 variant K53H, S55H (ligand) YFGKLESKLSVIRNLNDQVLFIDQGNRPLFEDMTDSDMRDNAPRTIFIISMYHDHQPRGMAVTISVKSEKISTLSSENKIISFKEMNPPDNIKDTKSDIIFFQRSVPGHDNKMQFESSSYEGYFLASEKERDLFKLILKKEDELGDRSIMFTVQNED ?
1.01
